# measurement target: VEGF-R2 (Homo sapiens, UniProt P35968)
# Construct: made in house
# Sequence (P35968 20-1356): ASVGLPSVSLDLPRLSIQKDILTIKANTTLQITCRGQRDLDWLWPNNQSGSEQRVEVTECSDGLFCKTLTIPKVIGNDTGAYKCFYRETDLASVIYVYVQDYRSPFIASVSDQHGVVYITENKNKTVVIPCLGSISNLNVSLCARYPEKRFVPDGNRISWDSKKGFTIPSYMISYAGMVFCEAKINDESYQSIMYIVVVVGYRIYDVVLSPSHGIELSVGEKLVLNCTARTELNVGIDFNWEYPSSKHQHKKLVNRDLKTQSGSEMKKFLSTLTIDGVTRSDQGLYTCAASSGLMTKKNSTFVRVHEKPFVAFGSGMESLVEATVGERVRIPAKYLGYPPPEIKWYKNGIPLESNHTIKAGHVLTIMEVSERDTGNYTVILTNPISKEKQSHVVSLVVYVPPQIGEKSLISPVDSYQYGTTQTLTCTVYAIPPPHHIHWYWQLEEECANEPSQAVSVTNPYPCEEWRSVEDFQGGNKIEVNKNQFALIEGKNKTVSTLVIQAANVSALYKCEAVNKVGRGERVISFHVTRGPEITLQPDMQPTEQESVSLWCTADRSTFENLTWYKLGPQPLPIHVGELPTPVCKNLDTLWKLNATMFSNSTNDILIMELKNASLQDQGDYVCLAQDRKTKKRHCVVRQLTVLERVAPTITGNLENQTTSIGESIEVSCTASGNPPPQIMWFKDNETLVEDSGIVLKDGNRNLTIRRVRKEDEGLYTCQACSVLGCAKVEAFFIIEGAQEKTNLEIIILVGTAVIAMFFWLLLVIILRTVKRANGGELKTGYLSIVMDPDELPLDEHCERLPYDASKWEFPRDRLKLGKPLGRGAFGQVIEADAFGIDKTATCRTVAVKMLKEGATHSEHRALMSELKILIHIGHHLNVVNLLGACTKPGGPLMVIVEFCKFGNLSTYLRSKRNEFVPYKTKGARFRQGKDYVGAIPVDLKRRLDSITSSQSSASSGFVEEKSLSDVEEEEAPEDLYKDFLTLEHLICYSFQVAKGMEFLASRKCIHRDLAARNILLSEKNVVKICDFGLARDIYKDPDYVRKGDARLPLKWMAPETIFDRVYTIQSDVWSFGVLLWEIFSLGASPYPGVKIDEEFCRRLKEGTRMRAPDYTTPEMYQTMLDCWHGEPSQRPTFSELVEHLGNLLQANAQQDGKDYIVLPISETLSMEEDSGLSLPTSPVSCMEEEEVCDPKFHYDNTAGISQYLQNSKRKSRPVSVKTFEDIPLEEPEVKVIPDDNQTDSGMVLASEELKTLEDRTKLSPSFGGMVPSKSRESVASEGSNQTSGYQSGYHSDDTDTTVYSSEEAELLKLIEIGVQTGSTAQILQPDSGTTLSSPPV
# test method notes: VEGF-R2 kinase assay, 33P-ATP incorporation, residual activity
# Assay type: biochemical
# Parameters: key: % residual kinase activity (100% = no inhibitor)
# conditions used: tested at 25 micromolar
# Procedure: Compounds were tested in vitro as follows. Recombinant protein kinases, which were expressed as fusion proteins in SF9 insect cells or E. coli, were used for all in vitro assays. The purity and identity of each kinase was checked by SDS-PAGE/silver staining and by western blot analysis with specific antibodies. […] The reaction cocktails were incubated at 30° C. for 80 minutes. […] Incorporation of ^33Pi was determined with a microplate scintillation counter. […]
measurement kind: VEGF

INSERT INTO results (compound, reported_measurement) VALUES
  ('CCn1c2ccccc2c2ccc(CN3C(=O)N(C[C@H]4O[C@@H](n5nnc(C(N)=O)c5-c5ccccc5)[C@H](O)[C@@H]4O)C(=O)C3Cc3ccccc3)cc21 (stereo partly drawn)', 8),
  ('Nc1ncnc2c1ncn2[C@@H]1O[C@H](CN2C(=O)C(Cc3ccccc3)N(Cc3ccccc3[N+](=O)[O-])C2=O)[C@@H](O)[C@H]1O (stereo partly drawn)', 10),
  ('Cc1cccc(CSc2nc3cc(C(N)=O)ccc3n2C[C@H]2O[C@@H](n3cnc4c(N)ncnc43)[C@H](O)[C@@H]2O)c1', 58);

Data provenance: patent US8673586B2
